Origin of values: patent US20210388087A1

- target.system: T1, Human CD3eg linker (human)
- T1 construct: Single chain: epsilon and gamma subunits of human CD3 joined by a 29-mer linker, Flag-tag at the C-terminus; also called recombinant human CD3
- T1 chain: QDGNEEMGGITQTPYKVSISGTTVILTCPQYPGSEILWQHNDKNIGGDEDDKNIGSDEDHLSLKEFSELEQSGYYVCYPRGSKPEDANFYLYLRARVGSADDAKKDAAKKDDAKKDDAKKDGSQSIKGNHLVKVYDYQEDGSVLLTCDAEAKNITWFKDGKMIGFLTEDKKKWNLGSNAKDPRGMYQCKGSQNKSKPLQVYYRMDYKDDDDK
- experimental.details: Biacore SPR, vs template H183/L072
Listing of recorded fold change of affinity by entry.
property.label: fold change of affinity

binder: H183/L072 VH F29K (antibody, name in Kabat numbering, V domains shown) VH: QVQLVESGGGLVQPGRSLRLSCAASGFTKSNAWMHWVRQAPGKGLEWVAQIKDKGNAYAAYYAPSVKGRFTISRDDSKNSIYLQMNSLKTEDTAVYYCHYVHYASASTVLPAFGVDAWGQGTTVTVSS VL: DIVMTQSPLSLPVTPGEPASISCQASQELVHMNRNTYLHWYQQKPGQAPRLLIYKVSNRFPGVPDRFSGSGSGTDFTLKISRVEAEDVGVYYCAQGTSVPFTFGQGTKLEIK
property.label: fold change of affinity
observed.value: 0.1 fold
//
binder: H183/L072 VH K52bD (antibody, name in Kabat numbering, V domains shown) VH: QVQLVESGGGLVQPGRSLRLSCAASGFTFSNAWMHWVRQAPGKGLEWVAQIKDDGNAYAAYYAPSVKGRFTISRDDSKNSIYLQMNSLKTEDTAVYYCHYVHYASASTVLPAFGVDAWGQGTTVTVSS VL: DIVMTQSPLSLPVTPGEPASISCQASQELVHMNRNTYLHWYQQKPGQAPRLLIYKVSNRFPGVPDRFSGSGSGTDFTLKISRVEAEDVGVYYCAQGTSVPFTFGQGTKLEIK
property.label: fold change of affinity
observed.value: 0 fold
//
binder: H183/L072 VH F27W (antibody, name in Kabat numbering, V domains shown) VH: QVQLVESGGGLVQPGRSLRLSCAASGWTFSNAWMHWVRQAPGKGLEWVAQIKDKGNAYAAYYAPSVKGRFTISRDDSKNSIYLQMNSLKTEDTAVYYCHYVHYASASTVLPAFGVDAWGQGTTVTVSS VL: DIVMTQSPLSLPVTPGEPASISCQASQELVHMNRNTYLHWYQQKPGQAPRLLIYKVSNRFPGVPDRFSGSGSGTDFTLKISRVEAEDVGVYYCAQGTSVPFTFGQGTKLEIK
property.label: fold change of affinity
observed.value: 0 fold
